Cited source: ChEMBL document CHEMBL3872211

EXPERIMENT_NOTES: Selectivity index, ratio of IC50 for cytotoxicity against African green monkey vero cells to IC50 for antimalarial activity against chloroquine-sensitive Plasmodium falciparum 3D7 infected in human red blood cells
Assay type: toxicity, cell-based
CONDITION_LABEL: read-out: Ratio IC50
READOUT_KIND: selectivity ratio
One number for each entry.

Each molecule below has a recorded value; state its selectivity ratio.
1. NS(=O)(=O)c1ccc(N2N=C(c3ccc(OCC4=NCCO4)cc3)CC2c2ccc(Cl)cc2)cc1 (stereo unspecified)
2. COc1cccc(C2CC(c3ccc(OCC4=NCCO4)cc3)=NN2c2ccc(S(N)(=O)=O)cc2)c1 (stereo unspecified)
3. O=C(/C=C/c1ccc(Cl)cc1)c1ccc(OCC2=NCCO2)cc1
4. Clc1ccc(C2CC(c3ccc(OCC4=NCCO4)cc3)=NN2c2ccccc2)cc1 (stereo unspecified)
5. COc1ccc(C2CC(c3ccc(OCC4=NCCO4)cc3)=NN2c2ccc(S(N)(=O)=O)cc2)cc1 (stereo unspecified)
6. NS(=O)(=O)c1ccc(N2N=C(c3ccc(OCC4=NCCO4)cc3)CC2c2ccc(F)cc2)cc1 (stereo unspecified)

22.2
18.4
25.5
23.3
12.5
19.8

* * *

EXPERIMENT_NOTES: Selectivity index, ratio of IC50 for cytotoxicity against African green monkey vero cells to IC50 for antimalarial activity against chloroquine-resistant Plasmodium falciparum RKL9 infected in human red blood cells
Format: toxicity, cell-based
CONDITION_LABEL: read-out: Ratio IC50
For each of the compounds below, state its selectivity ratio.
Give bare numbers.

Each compound below has a recorded value; state its selectivity ratio.
1. c1ccc(N2N=C(c3ccc(OCC4=NCCO4)cc3)CC2c2c[nH]c3ccccc23)cc1 (stereo unspecified)
2. NS(=O)(=O)c1ccc(N2N=C(c3ccc(OCC4=NCCO4)cc3)CC2c2cccc(Cl)c2)cc1 (stereo unspecified)
3. COc1ccc(C2CC(c3ccc(OCC4=NCCO4)cc3)=NN2c2ccc(S(N)(=O)=O)cc2)cc1 (stereo unspecified)
4. O=C(/C=C/c1cccc(O)c1)c1ccc(OCC2=NCCO2)cc1
5. COc1cccc(C2CC(c3ccc(OCC4=NCCO4)cc3)=NN2c2ccc(S(N)(=O)=O)cc2)c1 (stereo unspecified)

2.3
8.7
5.5
7.7
8.1

* * *

Provide the recorded IC50 for the entries that follow.
Test system: Plasmodium falciparum
EXPERIMENT_NOTES: Antimalarial activity against chloroquine-resistant Plasmodium falciparum RKL9 infected in human red blood cells assessed as inhibition of schizont stage parasite growth measured after 24 hrs by giemsa staining based assay
Assay type: functional, cell-based
CONDITION_LABEL: RKL9, 24 h
Numbers only, in µg/mL.

Worked cases, IC50 given:
NS(=O)(=O)c1ccc(N2N=C(c3ccc(OCC4=NCCO4)cc3)CC2c2ccc(F)cc2)cc1 (stereo unspecified) = 1.77
NS(=O)(=O)c1ccc(N2N=C(c3ccc(OCC4=NCCO4)cc3)CC2c2ccc(Cl)cc2)cc1 (stereo unspecified) = 1.82
O=C(/C=C/c1ccc(Cl)cc1)c1ccc(OCC2=NCCO2)cc1 = 1.82
COc1cccc(C2CC(c3ccc(OCC4=NCCO4)cc3)=NN2c2ccc(S(N)(=O)=O)cc2)c1 (stereo unspecified) = 0.936
COc1ccc(C2CC(c3ccc(OCC4=NCCO4)cc3)=NN2c2ccccc2)cc1 (stereo unspecified) = 1.57

Shift focus to the following entry.
Return IC50 for the following molecule: COc1ccc(C2CC(c3ccc(OCC4=NCCO4)cc3)=NN2c2ccc(S(N)(=O)=O)cc2)cc1 (stereo unspecified)
0.737

* * *

EXPERIMENT_NOTES: Resistance index, ratio of IC50 for chloroquine-resistant Plasmodium falciparum RKL9 infected in human RBC to IC50 for chloroquine-sensitive Plasmodium falciparum 3D7 infected in human red blood cells
Type: functional
Recorded Ratio IC50 determines the group label, using lower bin (below 3), middle bin (3 to below 4), upper bin (4 or more)

Here are 3 compounds together with their reported answers.
COc1ccc(C2CC(c3ccc(OCC4=NCCO4)cc3)=NN2c2ccc(S(N)(=O)=O)cc2)cc1 (stereo unspecified) = lower bin
COc1ccc(C2CC(c3ccc(OCC4=NCCO4)cc3)=NN2c2ccccc2)cc1 (stereo unspecified) = lower bin
NS(=O)(=O)c1ccc(N2N=C(c3ccc(OCC4=NCCO4)cc3)CC2c2ccc(Cl)cc2)cc1 (stereo unspecified) = middle bin

Into which category would you place Clc1ccc(C2CC(c3ccc(OCC4=NCCO4)cc3)=NN2c2ccccc2)cc1 (stereo unspecified) ?
middle bin

Into which bin does this compound go? c1ccc(N2N=C(c3ccc(OCC4=NCCO4)cc3)CC2c2c[nH]c3ccccc23)cc1 (stereo unspecified)
upper bin

Kindly identify the class of COc1cccc(C2CC(c3ccc(OCC4=NCCO4)cc3)=NN2c2ccc(S(N)(=O)=O)cc2)c1 (stereo unspecified) .
lower bin

Tag the class for O=C(/C=C/c1ccc(Cl)cc1)c1ccc(OCC2=NCCO2)cc1
middle bin

Lab note: sort NS(=O)(=O)c1ccc(N2N=C(c3ccc(OCC4=NCCO4)cc3)CC2c2ccc(F)cc2)cc1 (stereo unspecified) into the matching Ratio IC50 band.
upper bin

* * *

Assignment: determine reported IC50 for the given compounds.
System: Plasmodium falciparum
EXPERIMENT_NOTES: Antimalarial activity against chloroquine-resistant Plasmodium falciparum RKL9 infected in human red blood cells assessed as inhibition of schizont stage parasite growth measured after 24 hrs by giemsa staining based assay
Format: functional, cell-based
CONDITION_LABEL: RKL9, 24 h
Answers are plain numbers, in µg/mL.

Some compounds with recorded IC50:
NS(=O)(=O)c1ccc(N2N=C(c3ccc(OCC4=NCCO4)cc3)CC2c2cccc(Cl)c2)cc1 (stereo not given) = 2.15
O=C(/C=C/c1cccc(O)c1)c1ccc(OCC2=NCCO2)cc1 = 1.57
c1ccc(N2N=C(c3ccc(OCC4=NCCO4)cc3)CC2c2c[nH]c3ccccc23)cc1 (stereo not given) = 4.23
CC(=O)N1N=C(c2ccc(OCC3=NCCO3)cc2)CC1c1ccc(Cl)cc1 (stereo not given) = 1.57

Next:
Print Plasmodium falciparum IC50 for Clc1ccc(C2CC(c3ccc(OCC4=NCCO4)cc3)=NN2c2ccccc2)cc1 (stereo not given) .
1.57

* * *

Tested on: Plasmodium falciparum
EXPERIMENT_NOTES: Antimalarial activity against chloroquine-sensitive Plasmodium falciparum 3D7 infected in human red blood cells assessed as inhibition of schizont stage parasite growth measured after 24 hrs by giemsa staining based assay
Format: functional, cell-based
CONDITION_LABEL: 3D7, 24 h
Entries whose IC50 is below 0.6 µg/mL take Condition met; entries at or above 0.6 µg/mL take Condition not met.

Use the examples below as a reference point.
c1ccc2c(C3CC(c4ccc(OCC5=NCCO5)cc4)=NN3)c[nH]c2c1 (stereo not given) = Condition not met
NS(=O)(=O)c1ccc(N2N=C(c3ccc(OCC4=NCCO4)cc3)CC2c2cccc([N+](=O)[O-])c2)cc1 (stereo not given) = Condition not met

Quick check: IC50 of O=C(/C=C/c1ccccc1)c1ccc(OCC2=NCCO2)cc1 under 0.6 µg/mL?
Condition not met

In the record for NS(=O)(=O)c1ccc(N2N=C(c3ccc(OCC4=NCCO4)cc3)CC2c2ccc([N+](=O)[O-])cc2)cc1 (stereo not given) , is IC50 less than 0.6 µg/mL?
Condition not met

Does the reported IC50 of O=C(/C=C/c1cccc(Cl)c1)c1ccc(OCC2=NCCO2)cc1 stay below 0.6 µg/mL?
Condition met

Dear reviewer, please state whether Cc1ccc(/C=C/C(=O)c2ccc(OCC3=NCCO3)cc2)cc1 has IC50 strictly beneath 0.6 µg/mL.
Condition not met

* * *

EXPERIMENT_NOTES: Selectivity index, ratio of IC50 for cytotoxicity against African green monkey vero cells to IC50 for antimalarial activity against chloroquine-sensitive Plasmodium falciparum 3D7 infected in human red blood cells
Type: toxicity, cell-based
CONDITION_LABEL: read-out: Ratio IC50
READOUT_KIND: selectivity ratio
Give bare numbers.

Please review the following examples before continuing.
NS(=O)(=O)c1ccc(N2N=C(c3ccc(OCC4=NCCO4)cc3)CC2c2cccc(Cl)c2)cc1 (stereo not given) = 34.2
COc1ccc(C2CC(c3ccc(OCC4=NCCO4)cc3)=NN2c2ccccc2)cc1 (stereo not given) = 30.4

Look at each molecule and report its selectivity ratio.
1. CC(=O)N1N=C(c2ccc(OCC3=NCCO3)cc2)CC1c1ccc(Cl)cc1 (stereo not given)
2. c1ccc(N2N=C(c3ccc(OCC4=NCCO4)cc3)CC2c2c[nH]c3ccccc23)cc1 (stereo not given)

1. 29.5
2. 21.3

Give selectivity ratio for the following molecule: O=C(/C=C/c1cccc(O)c1)c1ccc(OCC2=NCCO2)cc1
23.6

* * *

EXPERIMENT_NOTES: Selectivity index, ratio of IC50 for cytotoxicity against African green monkey vero cells to IC50 for antimalarial activity against chloroquine-resistant Plasmodium falciparum RKL9 infected in human red blood cells
Assay type: toxicity, cell-based
CONDITION_LABEL: read-out: Ratio IC50
READOUT_KIND: selectivity ratio

Some entries whose results are on file:
NS(=O)(=O)c1ccc(N2N=C(c3ccc(OCC4=NCCO4)cc3)CC2c2ccc(Cl)cc2)cc1 (stereo unspecified) = 5.7
O=C(/C=C/c1ccc(Cl)cc1)c1ccc(OCC2=NCCO2)cc1 = 7.8
CC(=O)N1N=C(c2ccc(OCC3=NCCO3)cc2)CC1c1ccc(Cl)cc1 (stereo unspecified) = 9.6
Clc1ccc(C2CC(c3ccc(OCC4=NCCO4)cc3)=NN2c2ccccc2)cc1 (stereo unspecified) = 7.1
NS(=O)(=O)c1ccc(N2N=C(c3ccc(OCC4=NCCO4)cc3)CC2c2ccc(F)cc2)cc1 (stereo unspecified) = 4.6

Give me measured selectivity ratio, please, for this molecule: COc1ccc(C2CC(c3ccc(OCC4=NCCO4)cc3)=NN2c2ccccc2)cc1 (stereo unspecified)
10.5
